# Test system: Human immunodeficiency virus 1
# assay.explanation: Effective concentration of compound required to protect human T-lymphocytic cells against the cytopathogenicity of HIV-1
# Assay type: functional, organism-based
# test.settings: Human immunodeficiency virus 1
endpoint.name: EC50 (µM)
Please state the figure in µM; there is no need to write the unit.

Reported EC50 for Human immunodeficiency virus 1, given CCCCc1ccc(CNC2C(Oc3c4cc5cc3Oc3ccc(cc3Cl)C(O)C3NC(=O)C(NC(=O)C5NC(=O)C5NC(=O)C(Cc6ccc(cc6)O4)NC(=O)C(NC)c4ccc(O)c(c4)Oc4cc(O)c(Cl)c5c4)c4ccc(O)c(c4)-c4c(cc(O)c(CN5CCN(Cc6ccc(-c7ccccc7)cc6)CC5)c4O)[C@H](C(=O)NCCCN(C)C)NC3=O)OC(C(=O)NCCCN(C)C)C(O)C2O)cc1 (stereo partly drawn) ? 3.5

Reported EC50 for Human immunodeficiency virus 1, given NC1C(=O)NC2Cc3ccc(c(Cl)c3)Oc3cc4cc(c3O)Oc3ccc(cc3Cl)C(O)C3NC(=O)C(NC(=O)C4NC(=O)C(NC2=O)c2cc(O)cc(c2)Oc2cc1ccc2O)c1ccc(O)c(c1)-c1c(cc(O)c(CNC2C4CC5CC(C4)CC2C5)c1O)[C@H](C(=O)NC1C2CC4CC(C2)CC1C4)NC3=O (stereo partly drawn) ? 2.5

====

# Test system: Human immunodeficiency virus 1
# assay.explanation: Effective concentration of compound required to protect human T-lymphocytic cells against the cytopathogenicity of HIV-1
# Type: functional, organism-based
# test.settings: Human immunodeficiency virus 1
Here, each record is paired with measured EC50 data.
Please state the figure in µM; there is no need to write the unit.

O=C1NC2C(=O)NC3C(=O)NC4C(=O)NC(C(=O)N[C@@H](C(=O)O)c5cc(O)cc(O)c5-c5cc4ccc5O)C(O)c4ccc(c(Cl)c4)Oc4cc3cc(c4O)Oc3ccc(cc3Cl)CC1NC(=O)C(/N=C(\S)Nc1ccccc1)c1ccc(O)c(c1)Oc1cc(O)cc2c1 (some centres not stated) :: 6

Now take the following molecule into account.
Reported EC50, molecule CNC(=O)[C@@H]1NC(=O)C2NC(=O)C(NC(=O)C3NC(=O)C(CC(N)=O)NC(=O)C(NC(=O)C(CC(C)C)N(C)C(=O)OC(C)(C)C)C(O)c4ccc(c(Cl)c4)Oc4cc3cc(c4O)Oc3ccc(cc3)C2O)c2ccc(O)c(c2)-c2c1cc(O)c(CN1CCN(Cc3ccc(-c4ccccc4)cc3)CC1)c2O (some centres not stated) : ____ 4

====

# Test system: Human immunodeficiency virus 1
# assay.explanation: Effective concentration of compound required to protect human T-lymphocytic cells against the cytopathogenicity of HIV-1
# Type: functional, organism-based
# test.settings: Human immunodeficiency virus 1
endpoint.name: EC50 (µM)
Please state the figure in µM; there is no need to write the unit.

NC1C(=O)NC2Cc3ccc(c(Cl)c3)Oc3cc4cc(c3O)Oc3ccc(cc3Cl)C(O)C3NC(=O)C(NC(=O)C4NC(=O)C(NC2=O)c2cc(O)cc(c2)Oc2cc1ccc2O)c1ccc(O)c(c1)-c1c(O)cc(O)cc1[C@H](C(=O)NC1C2CC4CC(C2)CC1C4)NC3=O (some centres undefined) :: 7

Reported EC50, compound CN(Cc1ccc(Cl)cc1)Cc1c(O)cc2c(c1O)-c1cc(ccc1O)C1NC(=O)C3NC(=O)C4NC(=O)C(Cc5ccc(c(Cl)c5)Oc5cc3cc(c5O)Oc3ccc(cc3Cl)C(O)C(NC1=O)C(=O)N[C@H]2C(=O)O)NC(=O)C(N)c1ccc(O)c(c1)Oc1cc(O)cc4c1 (some centres undefined) : ____ 17

Reported EC50, compound CNC(=O)[C@@H]1NC(=O)C2NC(=O)C(NC(=O)C3NC(=O)C(CC(N)=O)NC(=O)C(N)C(O)c4ccc(c(Cl)c4)Oc4cc3cc(c4O)Oc3ccc(cc3)C2O)c2ccc(O)c(c2)-c2c1cc(O)c(CNC1C3CC4CC(C3)CC1C4)c2O (some centres undefined) : ____ 13

Reported EC50, compound NC1Cc2ccc(c(Cl)c2)Oc2cc3cc(c2O)Oc2ccc(cc2Cl)C(O)C2NC(=O)C(NC(=O)C3NC(=O)C(c3cc(O)cc(Oc4cc(C5NC(=S)N(c6ccccc6)C5=O)ccc4O)c3)NC1=O)c1ccc(O)c(c1)-c1c(cc(O)c(CNC3C4CC5CC(C4)CC3C5)c1O)[C@H](C(=O)O)NC2=O (some centres undefined) : ____ 13

====

# Species on record: Mus musculus
# assay.explanation: Minimal inhibitory concentration required to cause a microscopic detectable alteration of C3H/3T3 embryo murine fibroblast cell morphology
# Assay type: functional
Here, each record is paired with measured MIC data.

CNC(=O)[C@@H]1NC(=O)C2NC(=O)C(NC(=O)C3NC(=O)C4NC(=O)C(Cc5ccc(c(Cl)c5)Oc5cc3cc(c5O)Oc3ccc(cc3Cl)C2O)NC(=O)C(N)c2ccc(O)c(c2)Oc2cc(O)cc4c2)c2ccc(O)c(c2)-c2c1cc(O)c(CNC1C3CC4CC(C3)CC1C4)c2O (some centres undefined) :: > 20 µM

Now take the following compound into account.
Reported MIC, compound NC(=O)C[C@@H]1NC(=O)C(N)C(O)c2ccc(c(Cl)c2)Oc2cc3cc(c2O)Oc2ccc(cc2)C(O)C2NC(=O)C(NC(=O)C3NC1=O)c1ccc(O)c(c1)-c1c(O)cc(O)cc1[C@H](C(=O)O)NC2=O (some centres undefined) : ____ > 100 µM

====

Here, each record is paired with measured pEC50 data.
# Test system: Human immunodeficiency virus 1
# assay.explanation: Effective concentration of compound required to protect human T-lymphocytic cells against the cytopathogenicity of HIV-1
# Type: functional, organism-based
# test.settings: Human immunodeficiency virus 1
Scale note: pEC50 = -log10(concentration in M).

CNC(CC(C)C)C(=O)NC1C(=O)NC(CC(N)=O)C(=O)NC2C(=O)NC3C(=O)NC(C(=O)N[C@@H](C(=O)O)c4cc(O)c(CN5CCN(Cc6ccc(-c7ccccc7)cc6)CC5)c(O)c4-c4cc3ccc4O)C(O)c3ccc(cc3)Oc3cc2cc(c3O)Oc2ccc(cc2Cl)C1O (stereo partly specified) :: 5.26
O=C(NC1C(=O)NC2Cc3ccc(c(Cl)c3)Oc3cc4cc(c3O)Oc3ccc(cc3Cl)C(O)C3NC(=O)C(NC(=O)C4NC(=O)C(NC2=O)c2cc(O)cc(c2)Oc2cc1ccc2O)c1ccc(O)c(c1)-c1c(O)cc(O)cc1[C@H](C(=O)O)NC3=O)OC12CC3CC(CC(C3)C1)C2 (stereo partly specified) :: 4.89
CNC(=O)[C@@H]1NC(=O)C2NC(=O)C(NC(=O)C3NC(=O)C4NC(=O)C(Cc5ccc(c(Cl)c5)Oc5cc3cc(c5O)Oc3ccc(cc3Cl)C2O)NC(=O)C(NC(=O)OC(C)(C)C)c2ccc(O)c(c2)Oc2cc(O)cc4c2)c2ccc(O)c(c2)-c2c(O)cc(O)cc21 (stereo partly specified) :: 4.89

Now take the following molecule into account.
Reported pEC50, molecule `CN[C@H](CC(C)C)C(=O)N[C@H]1C(=O)N[C@@H](CC(N)=O)C(=O)N[C@H]2C(=O)N[C@H]3C(=O)N[C@H](C(=O)N[C@H](C(=O)O)c4cc(O)c(CNCc5ccc(-c6ccc(Cl)cc6)cc5)c(O)c4-c4cc3ccc4O)[C@H](O[C@H]3C[C@](C)(N)[C@@H](O)[C@H](C)O3)c3ccc(cc3)Oc3cc2cc(c3O[C@@H]2O[C@H](CO)[C@@H](O)[C@H](O)[C@H]2O[C@H]2C[C@](C)(N)[C@@H](O)[C@H](C)O2)Oc2ccc(cc2Cl)[C@H]1O` : ____ 4.66

====

Here, each record is paired with measured MIC data.
# Organism: Mus musculus
# assay.explanation: Minimal inhibitory concentration required to cause a microscopic detectable alteration of C3H/3T3 embryo murine fibroblast cell morphology
# Assay type: functional
Please state the figure in µM; there is no need to write the unit.

Reported MIC, molecule `CN[C@H](CC(C)C)C(=O)N[C@H]1C(=O)N[C@@H](CC(N)=O)C(=O)N[C@H]2C(=O)N[C@H]3C(=O)N[C@H](C(=O)N[C@H](C(=O)NCc4ccc(-c5ccccc5)cc4)c4cc(O)cc(O)c4-c4cc3ccc4O)[C@H](O[C@H]3C[C@](C)(N)[C@@H](O)[C@H](C)O3)c3ccc(cc3)Oc3cc2cc(c3O[C@@H]2O[C@H](CO)[C@@H](O)[C@H](O)[C@H]2O[C@H]2C[C@](C)(N)[C@@H](O)[C@H](C)O2)Oc2ccc(cc2Cl)[C@H]1O` : ____ 4

Reported MIC, molecule CCCCOc1ccc(CNC2C(Oc3c4cc5cc3Oc3ccc(cc3Cl)C(O)C3NC(=O)C(NC(=O)C5NC(=O)C5NC(=O)C(Cc6ccc(cc6)O4)NC(=O)C(N(C)Cc4ccc(OCCCC)cc4)c4ccc(O)c(c4)Oc4cc(O)c(Cl)c5c4)c4ccc(O)c(c4)-c4c(O)cc(O)cc4[C@H](C(=O)NCCCN(C)C)NC3=O)OC(C(=O)NCCCN(C)C)C(O)C2O)cc1 (some centres undefined) : ____ 20

Reported MIC, molecule CNC(=O)[C@@H]1NC(=O)C2NC(=O)C(NC(=O)C3NC(=O)C(CC(N)=O)NC(=O)C(NC(=O)C(CC(C)C)N(C)C(=O)OC(C)(C)C)C(O)c4ccc(c(Cl)c4)Oc4cc3cc(c4O)Oc3ccc(cc3)C2O)c2ccc(O)c(c2)-c2c1cc(O)c(CN1CCN(Cc3ccc(-c4ccccc4)cc3)CC1)c2O (some centres undefined) : ____ 20

Reported MIC, molecule CCCCCCCCCCCCCCCCCCNCc1c(O)cc2c(c1O)-c1cc(ccc1O)C1NC(=O)C3NC(=O)C4NC(=O)C(Cc5ccc(c(Cl)c5)Oc5cc3cc(c5O)Oc3ccc(cc3Cl)C(O)C(NC1=O)C(=O)N[C@H]2C(=O)O)NC(=O)C(N)c1ccc(O)c(c1)Oc1cc(O)cc4c1 (some centres undefined) : ____ 100

Reported MIC, molecule CCCCc1ccc(CNCc2c(O)cc3c(c2O)-c2cc(ccc2O)C2NC(=O)C4NC(=O)C5NC(=O)C(Cc6ccc(c(Cl)c6)Oc6cc4cc(c6O)Oc4ccc(cc4Cl)C(O)C(NC2=O)C(=O)N[C@H]3C(=O)NC)NC(=O)C(NC(=O)OC(C)(C)C)c2ccc(O)c(c2)Oc2cc(O)cc5c2)cc1 (some centres undefined) : ____ 20

Reported MIC, molecule CCCCc1ccc(CNC2C(Oc3c4cc5cc3Oc3ccc(cc3Cl)C(O)C3NC(=O)C(NC(=O)C5NC(=O)C5NC(=O)C(Cc6ccc(cc6)O4)NC(=O)C(NC)c4ccc(O)c(c4)Oc4cc(O)c(Cl)c5c4)c4ccc(O)c(c4)-c4c(cc(O)c(CN5CCN(Cc6ccc(-c7ccccc7)cc6)CC5)c4O)[C@H](C(=O)NCCCN(C)C)NC3=O)OC(C(=O)NCCCN(C)C)C(O)C2O)cc1 (some centres undefined) : ____ 20
